Recorded below: IC50, system UniProt P15659.

# compound, IC50
records = [
    ("COc1cccc(CNC(=O)c2nn(CC3(c4cccc(C(F)(F)F)c4)CCCC3)cc(O)c2=O)c1 [Compound 624]", "100 to 1000 nM"),
]

Read the next record carefully.
[ask] If you can, please state the reported IC50 value of O=C(O)c1nn(CC2(c3ccccc3)CCCC2)cc(O)c1=O [Compound 410] .
[reply] < 100 nM

====

assayed-system: EN PA (Influenza A virus, UniProt P15659)
Entries and their IC50 values follow.

Here are 10 compounds together with their reported answers.
# compound, assayed-system, assay-metric, value-observed
measured = [
    ("O=C(O)c1nn(-c2ccccc2OC(F)(F)F)cc(O)c1=O", "EN PA (Influenza A virus, UniProt P15659)", "IC50", "< 0.1 µM"),
    ("CNC(=O)c1nn(CC2(c3ccc(Cl)c(Cl)c3)CCCC2)cc(O)c1=O", "EN PA (Influenza A virus, UniProt P15659)", "IC50", "< 0.1 µM"),
    ("CCOC(=O)c1nn(CC2(c3cccc(C(F)(F)F)c3)CCCC2)cc(O)c1=O", "EN PA (Influenza A virus, UniProt P15659)", "IC50", "≥ 1 µM"),
    ("CNC(=O)c1nn(CC2(n3cc(C)c4cccnc43)CCCCC2)cc(OC(=O)OC(C)(C)C)c1=O", "EN PA (Influenza A virus, UniProt P15659)", "IC50", "< 0.1 µM"),
    ("O=C(O)c1nn(-c2ccccc2-c2ccc(F)cc2)cc(O)c1=O", "EN PA (Influenza A virus, UniProt P15659)", "IC50", "0.1 to 1 µM"),
    ("CNC(=O)c1nn(CC2(c3ccccc3)CCC(C)(C)C2)cc(O)c1=O (stereo not drawn)", "EN PA (Influenza A virus, UniProt P15659)", "IC50", "< 0.1 µM"),
    ("CNC(=O)c1nn(CC(C)(C)c2ccc(C)cc2)cc(O)c1=O", "EN PA (Influenza A virus, UniProt P15659)", "IC50", "0.1 to 1 µM"),
    ("CNC(=O)c1nn(CC2(c3cc(F)c4ncccc4c3)CCCC2)cc(O)c1=O", "EN PA (Influenza A virus, UniProt P15659)", "IC50", "< 0.1 µM"),
    ("CNC(=O)c1nn(CC2(n3ccc4c(F)cccc43)CCCC2)cc(O)c1=O", "EN PA (Influenza A virus, UniProt P15659)", "IC50", "< 0.1 µM"),
    ("CC(C)C1CCN(c2ccccc2-n2cc(O)c(=O)c(C(=O)O)n2)CC1", "EN PA (Influenza A virus, UniProt P15659)", "IC50", "0.1 to 1 µM"),
]

[ask] Request body: readout IC50, system EN PA (Influenza A virus, UniProt P15659), query O=C(O)c1nn(-c2cc(C(F)(F)F)ccc2N2CCCC2)cc(O)c1=O . Return the value.
[reply] 0.1 to 1 µM

[ask] Request body: readout IC50, system EN PA (Influenza A virus, UniProt P15659), query O=C(NC1CC1)c1nn(CC2(c3cccc(C(F)(F)F)c3)CCCC2)cc(O)c1=O . Return the value.
[reply] 0.1 to 1 µM

[ask] Request body: readout IC50, system EN PA (Influenza A virus, UniProt P15659), query O=C(NC1CCCC1)c1nn(CC2(c3cccc(C(F)(F)F)c3)CCCC2)cc(O)c1=O . Return the value.
[reply] 0.1 to 1 µM
